System: Oligodendrocyte progenitor cells (OPCs)
Assay: In vitro OPC differentiation assay, GPR17 expression (immunocytochemistry)
Conditions: 3 μM (10× concentration, final 0.3 μM); 72 hours; fold change over vehicle
MEASURED_PROPERTY: GPR17 Fold Induction (Over Vehicle; 3 μM)

Check out these entries, answers already filled in.
| QUERY_SMILES | OBSERVED_RESULT |
| --- | --- |
| CN(CCCN(C)c1cnn2cc(-c3cnn(C)c3)ccc12)c1ncc(Cc2ccccc2)cn1 | 1.57 |
| CC(C)NC(=O)N1CCN(c2cnn3cc(-c4cnn(C)c4)ccc23)CC1 | 1.13 |

P: Cn1cc(-c2ccc3c(N4CCN(c5ncc(S(=O)(=O)c6ccccc6)cn5)CC4)cnn3c2)cn1
Q: Cc1nn(C)cc1-c1ccc2c(N3CCN(C(=O)OC(C)(C)C)CC3)cnn2c1
Between the entries labeled P and Q , whose measured GPR17 Fold Induction (Over Vehicle; 3 μM) is lower? // output: label of the selected item
P

* * *

Test system: Oligodendrocyte progenitor cells (OPCs)
Experiment: In vitro OPC differentiation assay, GPR17 expression (immunocytochemistry)
Conditions: 5 μM (10× concentration, final 0.5 μM); 72 hours; fold change over vehicle
MEASURED_PROPERTY: GPR17 Fold Induction (Over Vehicle; 5 μM)

| QUERY_SMILES | ASSAYED_TARGET | OBSERVED_RESULT |
| --- | --- | --- |
| Cn1cc(-c2cn3ncc(N4CCN(C(=O)OC(C)(C)C)CC4)c3cn2)cn1 | Oligodendrocyte progenitor cells (OPCs) | 3.74 |
| Cn1cc(-c2ccc3c(N4CCN(C(=O)OCC(C)(C)C)CC4)cnn3c2)cn1 | Oligodendrocyte progenitor cells (OPCs) | 3.69 |
| Cn1cc(-c2ccc3c(C4=CCN(c5ncc(Cc6ccccc6)cn5)C4)cnn3c2)cn1 | Oligodendrocyte progenitor cells (OPCs) | 2.52 |

A: C[C@@H](OC(=O)N1CCN(c2cnn3cc(-c4cnn(C)c4)ncc23)CC1)c1ccccc1
B: Cn1cc(-c2ccc3c(N4CCN(C(=O)OC5CCC5)CC4)cnn3c2)cn1
// pick larger GPR17 Fold Induction (Over Vehicle; 5 μM) from pair: A vs B // output: label of the selected item
B
(B: 6.99, A: 4.42)

I: Cn1cc(-c2ccc3c(N4CCCN(c5ncc(Cc6ccccc6)cn5)CC4)cnn3c2)cn1
II: CCC(CC)OC(=O)N1CCN(c2cnn3cc(-c4cnn(C)c4)ccc23)CC1
Between the entries labeled I and II , whose measured GPR17 Fold Induction (Over Vehicle; 5 μM) is lower? // output: label of the selected item
II
(II: 2.39, I: 7.65)

* * *

Target: PDGFRα (Homo sapiens (Human))
Sequence (P16234 24-1089): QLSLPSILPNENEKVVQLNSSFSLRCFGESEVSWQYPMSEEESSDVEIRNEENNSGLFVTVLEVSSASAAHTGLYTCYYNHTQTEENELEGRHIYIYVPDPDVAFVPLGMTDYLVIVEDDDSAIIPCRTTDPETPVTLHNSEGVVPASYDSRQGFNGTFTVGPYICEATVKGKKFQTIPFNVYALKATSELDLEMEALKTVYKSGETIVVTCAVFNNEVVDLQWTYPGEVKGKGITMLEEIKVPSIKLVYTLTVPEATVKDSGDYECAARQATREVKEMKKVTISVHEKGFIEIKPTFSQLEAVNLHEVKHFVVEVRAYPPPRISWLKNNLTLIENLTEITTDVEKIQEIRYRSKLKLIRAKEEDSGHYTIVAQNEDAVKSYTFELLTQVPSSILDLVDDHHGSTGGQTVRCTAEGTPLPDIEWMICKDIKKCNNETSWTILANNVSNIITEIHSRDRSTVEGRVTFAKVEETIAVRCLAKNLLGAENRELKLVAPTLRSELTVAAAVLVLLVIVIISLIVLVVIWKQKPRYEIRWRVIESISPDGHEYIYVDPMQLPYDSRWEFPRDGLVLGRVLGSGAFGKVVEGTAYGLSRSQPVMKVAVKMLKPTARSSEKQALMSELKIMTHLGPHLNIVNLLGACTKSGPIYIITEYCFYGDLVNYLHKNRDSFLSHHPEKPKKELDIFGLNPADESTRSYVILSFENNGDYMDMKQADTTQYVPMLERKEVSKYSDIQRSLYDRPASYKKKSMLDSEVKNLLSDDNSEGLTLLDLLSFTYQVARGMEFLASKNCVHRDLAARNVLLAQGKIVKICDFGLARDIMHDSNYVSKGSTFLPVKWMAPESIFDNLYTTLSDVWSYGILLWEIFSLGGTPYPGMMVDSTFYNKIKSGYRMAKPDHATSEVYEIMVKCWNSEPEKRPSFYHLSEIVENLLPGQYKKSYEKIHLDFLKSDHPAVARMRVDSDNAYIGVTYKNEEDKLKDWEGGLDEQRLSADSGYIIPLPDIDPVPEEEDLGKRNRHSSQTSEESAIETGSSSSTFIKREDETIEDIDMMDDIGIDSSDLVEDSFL
Experiment: PDGFRα kinase enzyme assay (Promega PDGFRα Kinase Enzyme System, ADP-Glo)
Type: biochemical
Settings: 20 ng purified PDGFRα, 150 uM ATP, Poly (Glu4Tyr1) substrate, two hours, 11-point dose response; read-out: IC50 Values on PDGFRα Kinase Inhibition
MEASURED_PROPERTY: IC50 (µM)

| COMPOUND | MEASURED_PROPERTY | OBSERVED_RESULT |
| --- | --- | --- |
| COC(=O)[C@@]1(O)C[C@H]2O[C@]1(C)n1c3ccccc3c3c4c(c5c6ccccc6n2c5c31)C(=O)NC4 [Compound K252a, K252a, reference compound] | IC50 | 0.427 |

A: Cc1ccc(F)c(NC(=O)Nc2ccc(-c3cccc4[nH]nc(N)c34)cc2)c1 [Linifanib (ABT-869), linifanib, reference compound]
B: CNC(=O)c1cc(COc2nnc(Nc3ccc(Cl)cc3)c3ccoc23)ccn1 [Telatinib, telatinib, reference compound]
C: CN(C[C@@H]1COCCO1)S(=O)(=O)Nc1ccc2ccc3ncc(-c4cnn(C)c4)cc3c(=O)c2c1 [MK 2461, reference compound]
Put the entries in order of IC50, starting with the largest number. Order the labels as requested and list them.
A, B, C
(A: 1.21 µM, B: 0.0688 µM, C: 0.0108 µM)

# credit: patent US20250129067A1
